The measurements presented in this section are drawn from the supplement of paper PMC11061612.

System: NCI-H727 (Other Solid Carcinomas)
method-description: Bliss excess, mean over the matrix (fraction); higher = more synergy;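 also: after 72 h of two-drug dosing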
endpoint-name: Bliss excess
// return a plain number; no unit text

Consider the worked cases shown below.
compound	Bliss excess
Cc1c2c(nn1C)CSCc1cc(n(C)n1)CSc1cc(c3ccccc3c1)OCCCc1c(C(=O)O)n(C)c3c-2c(Cl)ccc13 [AZD5991] + Cc1cc2ncnn2cc1Nc1ncc2c(n1)n(C1CCOCC1)c(=O)n2C [AZD7648] (first compound max 1 µM, 7x7, partner max 10 µM)	-0.0833
C[C@@H]1COCCN1c1cc(C2([S@](C)(=N)=O)CC2)nc(-c2ccnc3[nH]ccc23)n1 [AZD6738] + Nc1ccn([C@@H]2O[C@H](CO)[C@@H](O)C2(F)F)c(=O)n1 [Gemcitabine] (first compound max 10 µM, 7x7, partner max 0.3 µM)	0.0121

Now take the following compound into account.
System NCI-H727 (Other Solid Carcinomas). Read-out Bliss excess. Item Cc1cc2ncnn2cc1Nc1ncc2c(n1)n(C1CCOCC1)c(=O)n2C [AZD7648] + CN(C)CCCOc1ccc(-c2ccc3ncc4c(c3c2)n(C2CCOCC2)c(=O)n4C)cn1 [AZD0156] (first compound max 10 µM, 7x7, partner max 1 µM) . Report value.
0.0162

---

In this section, each of the compounds is paired with its reported Bliss excess.
Tested on: HSC-4 (Oral Cavity Carcinoma)
method-description: Bliss excess, mean over the matrix (fraction); higher = more synergy
Please reply with the value in numeric form only.

Some compounds with known Bliss excess results, for comparison:
compound	Bliss excess
COc1nnc2ccc(N3CCC(c4ccc(OCCN5CCN(C)C(=O)[C@H]5C)cc4)CC3)nn12 [AZD5153] + C=CCn1c(=O)c2cnc(Nc3ccc(N4CCN(C)CC4)cc3)nc2n1-c1cccc(C(C)(C)O)n1 [AZD1775] (first compound max 1 µM, partner max 1 µM)	-0.0852
Cc1c2c(nn1C)CSCc1cc(n(C)n1)CSc1cc(c3ccccc3c1)OCCCc1c(C(=O)O)n(C)c3c-2c(Cl)ccc13 [AZD5991] + C[C@@H]1COCCN1C2=NC(=NC(=C2)C3(CC3)[S@](=N)(=O)C)C4=C5C=CNC5=NC=C4 [AZD6738] (first compound max 1 µM, 7x7, partner max 10 µM)	-0.0403
Cc1c2c(nn1C)CSCc1cc(n(C)n1)CSc1cc(c3ccccc3c1)OCCCc1c(C(=O)O)n(C)c3c-2c(Cl)ccc13 [AZD5991] + C=CCn1c(=O)c2cnc(Nc3ccc(N4CCN(C)CC4)cc3)nc2n1-c1cccc(C(C)(C)O)n1 [AZD1775] (first compound max 1 µM, partner max 1 µM)	-0.0805

Return value of Bliss excess for input COc1nnc2ccc(N3CCC(c4ccc(OCCN5CCN(C)C(=O)[C@H]5C)cc4)CC3)nn12 [AZD5153] + CN(CC[C@H](CSC1=CC=CC=C1)NC2=C(C=C(C=C2)S(=O)(=O)NC(=O)C3=CC=C(C=C3)N4CCC(CC4)[C@H](C5=CC=CC=C5C6=CC=C(C=C6)Cl)O)S(=O)(=O)C(F)(F)F)CCO [AZD4320] (first compound max 1 µM, 7x7, partner max 1 µM) , no commentary.
-0.0287

Give the value of Bliss excess reported for the following: CN(CCO)CC[C@H](CSc1ccccc1)Nc1ccc(S(=O)(=O)NC(=O)c2ccc(N3CCC([C@@H](O)c4ccccc4-c4ccc(Cl)cc4)CC3)cc2)cc1S(=O)(=O)C(F)(F)F [AZD4320] + C1CN(CCC1(C(=O)N[C@@H](CCO)C2=CC=C(C=C2)Cl)N)C3=NC=NC4=C3C=CN4 [Capivasertib] (first compound max 1 µM, 7x7, partner max 3 µM)
-0.0269

Tell me Bliss excess reported for COc1cccc(OCCCN)c1-c1cc(Nc2cnc(C#N)cn2)n[nH]1 [Prexasertib] + O=C(c1cc(Cc2n[nH]c(=O)c3ccccc23)ccc1F)N1CCN(C(=O)C2CC2)CC1 [Olaparib] (first compound max 1 µM, 7x7, partner max 10 µM)
0.029

Using known records, supply Bliss excess for CC1(C)CCC(CN2CCN(c3ccc(C(=O)NS(=O)(=O)c4ccc(NCC5CCOCC5)c([N+](=O)[O-])c4)c(Oc4cnc5[nH]ccc5c4)c3)CC2)=C(c2ccc(Cl)cc2)C1 [Venetoclax] + C[C@@H]1COCCN1C2=NC(=NC(=C2)C3(CC3)[S@](=N)(=O)C)C4=C5C=CNC5=NC=C4 [AZD6738] (first compound max 1 µM, 7x7, partner max 10 µM)
-0.0509

Give me measured Bliss excess, please, for this compound: C[C@@H](c1ccc2nccn2c1)n1nnc2ncc(-c3cnn(C)c3)nc21 [Savolitinib] + Cc1c2c(nn1C)CSCc1cc(n(C)n1)CSc1cc(c3ccccc3c1)OCCCc1c(C(=O)O)n(C)c3c-2c(Cl)ccc13 [AZD5991] (first compound max 1 µM, 7x7, partner max 1 µM)
-0.0864

Item CC1(C)CCC(CN2CCN(c3ccc(C(=O)NS(=O)(=O)c4ccc(NCC5CCOCC5)c([N+](=O)[O-])c4)c(Oc4cnc5[nH]ccc5c4)c3)CC2)=C(c2ccc(Cl)cc2)C1 [Venetoclax] + C[C@@H](Nc1cc(F)cc(F)c1)c1cc(C(=O)N(C)C)cc2c(=O)cc(N3CCOCC3)oc12 [AZD8186] (first compound max 1 µM, 7x7, partner max 3 µM) : provide Bliss excess
-0.0369

Report Bliss excess for CC1(C)CCC(CN2CCN(c3ccc(C(=O)NS(=O)(=O)c4ccc(NCC5CCOCC5)c([N+](=O)[O-])c4)c(Oc4cnc5[nH]ccc5c4)c3)CC2)=C(c2ccc(Cl)cc2)C1 [Venetoclax] + C1CN(CCC1(C(=O)N[C@@H](CCO)C2=CC=C(C=C2)Cl)N)C3=NC=NC4=C3C=CN4 [Capivasertib] (first compound max 1 µM, 7x7, partner max 3 µM)
-0.0281

Annotate the compound C=CCn1c(=O)c2cnc(Nc3ccc(N4CCN(C)CC4)cc3)nc2n1-c1cccc(C(C)(C)O)n1 [AZD1775] + C[C@@H]1COCCN1C2=NC(=NC(=C2)C3(CC3)[S@](=N)(=O)C)C4=C5C=CNC5=NC=C4 [AZD6738] (first compound max 1 µM, partner max 10 µM) with its measured Bliss excess.
-0.0155

Tell me measured Bliss excess for CCN(CCO)CCCOc1ccc2c(Nc3cc(CC(=O)Nc4cccc(F)c4)[nH]n3)ncnc2c1 [AZD2811] + O=C(c1cc(Cc2n[nH]c(=O)c3ccccc23)ccc1F)N1CCN(C(=O)C2CC2)CC1 [Olaparib] (first compound max 1 µM, 7x7, partner max 10 µM) please.
-0.0347

Please give measured Bliss excess of the following entry: CC(=O)c1c(C)c2cnc(Nc3ccc(N4CCNCC4)cn3)nc2n(C2CCCC2)c1=O [Palbociclib] + Cn1cnc2c(F)c(Nc3ccc(Br)cc3Cl)c(C(=O)NOCCO)cc21 [Selumetinib] (first compound max 10 µM, 7x7, partner max 10 µM)
-0.0488

---

Tested on: SCC-15 (Oral Cavity Carcinoma)
method-description: Bliss excess, mean over the matrix (fraction); higher = more synergy
Assign a class from recorded Bliss excess; defined classes: lo = under -0.04, mid = from -0.04 up to 0.01, hi = 0.01 and over

Previously resolved entries follow.
compound	study-target	assigned-category
CC1(C)CCC(CN2CCN(c3ccc(C(=O)NS(=O)(=O)c4ccc(NCC5CCOCC5)c([N+](=O)[O-])c4)c(Oc4cnc5[nH]ccc5c4)c3)CC2)=C(c2ccc(Cl)cc2)C1 [Venetoclax] + C=CCn1c(=O)c2cnc(Nc3ccc(N4CCN(C)CC4)cc3)nc2n1-c1cccc(C(C)(C)O)n1 [AZD1775] (first compound max 1 µM, partner max 1 µM)	SCC-15 (Oral Cavity Carcinoma)	mid
CCc1c2c(nc3ccc(O)cc13)-c1cc3c(c(=O)n1C2)COC(=O)[C@]3(O)CC [SN-38] + CN(C)CCCOc1ccc(-c2ccc3ncc4c(c3c2)n(C2CCOCC2)c(=O)n4C)cn1 [AZD0156] (first compound max 0.3 µM, 7x7, partner max 1 µM)	SCC-15 (Oral Cavity Carcinoma)	mid
Cn1cnc2c(F)c(Nc3ccc(Br)cc3Cl)c(C(=O)NOCCO)cc21 [Selumetinib] + CC(C)n1c(=O)n(C)c2cnc3cc(F)c(-c4ccc(OCCCN5CCCCC5)nc4)cc3c21 [AZD1390] (first compound max 10 µM, 7x7, partner max 0.3 µM)	SCC-15 (Oral Cavity Carcinoma)	lo
Cc1c2c(nn1C)CSCc1cc(n(C)n1)CSc1cc(c3ccccc3c1)OCCCc1c(C(=O)O)n(C)c3c-2c(Cl)ccc13 [AZD5991] + C[C@@H]1COCCN1C2=NC(=NC(=C2)C3(CC3)[S@](=N)(=O)C)C4=C5C=CNC5=NC=C4 [AZD6738] (first compound max 1 µM, 7x7, partner max 10 µM)	SCC-15 (Oral Cavity Carcinoma)	hi
Cc1cc2ncnn2cc1Nc1ncc2c(n1)n(C1CCOCC1)c(=O)n2C [AZD7648] + C[C@@H]1COCCN1C2=NC(=NC(=C2)C3(CC3)[S@](=N)(=O)C)C4=C5C=CNC5=NC=C4 [AZD6738] (first compound max 10 µM, 7x7, partner max 10 µM)	SCC-15 (Oral Cavity Carcinoma)	hi

Please classify: NC1(C(=O)N[C@@H](CCO)c2ccc(Cl)cc2)CCN(c2ncnc3[nH]ccc23)CC1 [Capivasertib] + CCN(CCO)CCCOc1ccc2c(Nc3cc(CC(=O)Nc4cccc(F)c4)[nH]n3)ncnc2c1 [AZD2811] (first compound max 10 µM, 7x7, partner max 1 µM)
hi

Bin? CC(=O)c1c(C)c2cnc(Nc3ccc(N4CCNCC4)cn3)nc2n(C2CCCC2)c1=O [Palbociclib] + CN(CC[C@H](CSC1=CC=CC=C1)NC2=C(C=C(C=C2)S(=O)(=O)NC(=O)C3=CC=C(C=C3)N4CCC(CC4)[C@H](C5=CC=CC=C5C6=CC=C(C=C6)Cl)O)S(=O)(=O)C(F)(F)F)CCO [AZD4320] (first compound max 10 µM, 7x7, partner max 1 µM)
lo

Lab log: Cc1c2c(nn1C)CSCc1cc(n(C)n1)CSc1cc(c3ccccc3c1)OCCCc1c(C(=O)O)n(C)c3c-2c(Cl)ccc13 [AZD5991] + CC1(C)CCC(CN2CCN(c3ccc(C(=O)NS(=O)(=O)c4ccc(NCC5CCOCC5)c([N+](=O)[O-])c4)c(Oc4cnc5[nH]ccc5c4)c3)CC2)=C(c2ccc(Cl)cc2)C1 [Venetoclax] (first compound max 1 µM, 7x7, partner max 1 µM) — assign Bliss excess category
mid

Hello team, could you let me know which band the following compound falls into: COc1nnc2ccc(N3CCC(c4ccc(OCCN5CCN(C)C(=O)[C@H]5C)cc4)CC3)nn12 [AZD5153] + C=CCn1c(=O)c2cnc(Nc3ccc(N4CCN(C)CC4)cc3)nc2n1-c1cccc(C(C)(C)O)n1 [AZD1775] (first compound max 1 µM, partner max 1 µM)
lo
